Test system: K-562 leukemia
Assay: NCI-60 one-dose screen, 48 h (100 = growth as untreated, 0 = no growth, -100 = all killed)
Conditions: 10 µM
This is part of a sample that, as a whole, favours compounds with a hit. Of some 83,000 tested, about 20% had one in any assay.

# MOLECULE, UNIT ANNOTATION, growth
data = [
    ("CC(=O)N1N=C(c2ccc(Cl)cc2)CC1c1sc(Cl)nc1Cl (stereo not drawn)", "%", 66.1),
    ("COc1ccc(Oc2nc(NC3CCCC3)nc(Sc3ccc(OC)cc3)n2)cc1", "%", 53.3),
    ("COc1cc(-c2cc(C(=O)N3CCN(C(=O)c4ccccc4NCc4ccco4)CC3)nc3cc(-c4ccccc4)nn23)cc(OC)c1OC", "%", 12.3),
    ("CC(=O)c1cc(Cl)ccc1O", "%", 103),
    ("COc1ccc2c(c1)N(CCO)C1=C(C(=O)OC1)C2c1cc(OC)c(OC)c(OC)c1 (stereo not drawn)", "%", 15),
    ("O=C(Nc1nc(-c2ccccc2Cl)cs1)c1cc(-c2ccc(Cl)cc2)nc2ccc(Cl)cc12", "%", 14.8),
    ("Nc1ccc2c(c1)C1(CCC2)NC(=O)NC1=O (stereo not drawn)", "%", 95.8),
    ("N=C1c2nc3n(c2C(=O)c2nc4n(c21)CCCC4)CCCC3", "%", 81.4),
    ("COc1cc(-c2cc(/C=C/C(=O)c3ccc4c(c3)OCO4)[nH]n2)cc(OC)c1OC", "%", 22.3),
    ("COc1ccc(-c2nc3sc(-c4ccc(OC)cc4)c(-c4ccc(OC)cc4)n3c2/C=C/c2ccc(C(C)C)cc2)cc1", "%", 105),
    ("COc1ccc(-c2csc(NC(=O)CSc3nc(C)c(-c4ccccc4)n3Nc3ccccc3)n2)cc1", "%", 24.8),
    ("CC(=O)N1C/C(=C/c2ccc(Cl)cc2)C(=O)/C(=C/c2ccc(Cl)cc2)C1", "%", 2.09),
    ("CCN(CC)CCOc1nc2ccccc2c2c1-c1ccc(OC)cc1C2=O", "%", -17.8),
    ("C=C(C(=O)c1ccccc1)C(NC(C)(C)C)c1ccccc1 (stereo not drawn)", "%", 4.27),
    ("CCOC(=O)N1C=CC2C=CC1C1C=CC=CC2N1C(=O)OCC (stereo not drawn)", "%", 47.8),
    ("Nc1nc(N)c2c(ccc3nccc32)[nH]1", "%", 16.6),
    ("N=C(N)c1ccc(-c2ccc(-c3cccs3)s2)s1", "%", -68),
    ("CCCCOc1ccc(NC(=O)Nc2nnc(C)s2)cc1", "%", 83.8),
    ("C/C(=N\\Nc1nc2ccccc2s1)c1ccncn1", "%", 0.401),
    ("Cc1cc(C)c2c(n1)sc1c(Nc3ccc(Cl)cc3)ncnc12", "%", 46.2),
    ("CN1c2ccccc2[C@]2(Cc3ccccc3)Cc3ccccc3N[C@H]12", "%", 92.1),
    ("COc1ccc(-c2nc3sc(-c4ccccc4)c(-c4ccccc4)n3c2/C=C/C(=O)c2ccccn2)cc1", "%", 66),
    ("N#CCCN1C/C(=C/c2ccc(Cl)cc2)C(=O)/C(=C/c2ccc(Cl)cc2)C1", "%", 3.1),
    ("Fc1ccc(-c2nnc(-c3c(-c4ccc(F)cc4)nc4ccccn34)o2)cc1", "%", 87.2),
    ("COc1cc(Nc2ncnc(Nc3ccc4c(n3)NC(=O)C(C)(C)O4)n2)cc(OC)c1OC", "%", 34.6),
    ("O=C(Nc1cccc(-n2cc(-c3ccncc3)c(-c3ccc(O)c(Cl)c3)n2)c1)Nc1ccc(Cl)c(Cl)c1", "%", 5.72),
    ("COc1ccc(NC2=NC(C)(CO)CS2)cc1 (stereo not drawn)", "%", 98.7),
    ("COc1ccc([N+](=O)[O-])c(C(=O)O)c1", "%", 88.6),
    ("COc1cc2c(cc1OCCCCCCN1CCN(CC(=O)Nc3ccc(Cl)cc3C(=O)c3ccccc3Cl)CC1)N=CC1CCCN1C2=O (stereo not drawn)", "%", -62.3),
    ("CN(C)c1ccc(-c2cc(-c3cccc(NS(C)(=O)=O)c3)nc(N)c2C#N)cc1", "%", 10.9),
    ("COc1cccc(C(=O)Nc2ccc(CN3CCc4nc5cc(OC)c(OC)cc5cc43)cc2)c1", "%", 24.5),
    ("C#Cc1ccc(-n2c(/C=C/c3ccc4ccccc4c3)nc3ncccc3c2=O)cc1", "%", 6.94),
    ("Nc1c(C(=O)Nc2cccc(F)c2)sc2nc3c(cc12)C(=O)CCC3", "%", 20.1),
    ("CCCCCCCC(C)NCCO (stereo not drawn)", "%", 103),
    ("COc1cc(-c2cc(/C=C/C(=O)c3ccc(Cl)c(Cl)c3)[nH]n2)cc(OC)c1OC", "%", 31.9),
    ("O=[N+]([O-])c1ccc(Oc2cccnc2)c([N+](=O)[O-])c1", "%", 16.1),
    ("S=C1SCC(c2ccccc2)S1 (stereo not drawn)", "%", 106),
    ("Cc1cc(=O)[nH]c(N/N=C/c2ccccc2O)n1", "%", 59.9),
    ("O=C(O)c1ccc(P(=O)(O)O)c([N+](=O)[O-])c1", "%", 107),
    ("O=C(Nc1ccncc1)C(=O)c1cn(S(=O)(=O)c2cccc(Cl)c2)c2ccccc12", "%", 19.8),
    ("CN(C)c1ccc(/C=C/C=N/NC(=O)c2cc(O)c(O)c(O)c2)cc1", "%", 27.1),
    ("Nc1nccc(Nc2ccccc2)n1", "%", 102),
    ("Cc1ncc(-c2ccoc2)c(NC2CCCCCC2)n1", "%", 106),
]

----------
Test system: SF-539 CNS
Assay: NCI-60 one-dose screen, 48 h (100 = growth as untreated, 0 = no growth, -100 = all killed)
Conditions: 10 µM
Compounds without any hit were thinned out: in the full panel of roughly 83,000, 20% have a hit.
# growth annotations

# COMPOUND, growth, %
measured = [
    ("CC(C)N(CCNc1nc(C(Cl)(Cl)Cl)nc2cc(Cl)ccc12)C(C)C", -33.7),
    ("COc1ccc(CN2CCC(N3CCCC3=O)c3cc(Cl)ccc32)cc1 (stereo not drawn)", 110),
    ("O=C1/C(=C\\c2ccc(F)cc2)CN(C(=O)c2ccccc2)C/C1=C\\c1ccc(F)cc1", 69.2),
    ("COc1cc(NC(=O)CSc2nc3ccccc3c(=O)n2CCc2ccccc2)cc(OC)c1OC", -50),
    ("CC(C)(C)c1cc(Br)cc(C(C)(C)C)c1O", 104),
    ("CCc1ccc2c(c1)N(CCO)C1=C(C(=O)OC1)C2c1ccccc1 (stereo not drawn)", 103),
    ("O=C(O)CCCCSc1ncnc2nc[nH]c12", 102),
    ("NC(=S)N=Nc1c(O)c2ccccc2c2ccccc12", 16.1),
    ("CCCCN(CCCC)c1cc(C(=O)CCCCCN)c2ccccc2n1", 83.6),
    ("COc1ccc([N+](=O)[O-])c(C(=O)O)c1", 98.7),
    ("CN(C)c1ccc(/C=C/C=N/NC(=O)c2cc(O)c(O)c(O)c2)cc1", 89.8),
    ("CC(=O)N1C/C(=C/c2ccc(Cl)cc2)C(=O)/C(=C/c2ccc(Cl)cc2)C1", -39.4),
    ("CC1(C)CCC(=NNC(N)=S)CC1", 98.1),
    ("c1ccc([I+]c2ccccc2)cc1", 68.9),
    ("O=c1c2ccccc2nc(SCCN2CCCCC2)n1CCc1ccccc1", 90.2),
    ("O=[N+]([O-])c1ccc(Oc2cccnc2)c([N+](=O)[O-])c1", 75.7),
    ("CCCCC(CCCCCC(CCCC)NCc1ccc2c(c1)OCO2)NCc1ccc2c(c1)OCO2 (stereo not drawn)", -100),
    ("Fc1ccc(-c2nnc(-c3c(-c4ccc(F)cc4)nc4ccccn34)o2)cc1", -10.1),
    ("Clc1cc2c(c(CSc3nc4ccccc4n4cccc34)c1)OCOC2", 67.2),
    ("N=C(N)c1ccc(-c2ccc(-c3cccs3)s2)cc1", 89.5),
    ("ClCCOCCn1cnc2c(Cl)nc(Cl)nc21", 96.8),
    ("Clc1ccc2c(NCCCNc3nccc(Nc4ccc(Br)cc4)n3)ccnc2c1", -93.1),
    ("O=C(Nc1ccc(Cl)c(Cl)c1)Nc1c(Oc2ccc(Cl)c(Cl)c2)ccc(Cl)c1S(=O)(=O)O", 4),
]

----------
Tested on: K-562 leukemia
Assay: NCI-60 one-dose screen, 48 h
Details: 10 µM
About 83,000 compounds went through this panel and 20% of them were active in at least one assay; those are over-represented in the sample as a whole. Calls of active or inactive are those of the source. The calls were made as follows: active = growth percent below 10; inactive = the rest.
Outcomes: TRUE for active, FALSE for inactive

# MOLECULE, SYSTEM TESTED, GROUP LABEL
records = [
    ("CCN(CC)CCCC(C)Nc1ccc2ccc(Cl)cc2n1 (stereo unspecified)", "K-562 leukemia", "FALSE"),
    ("C#Cc1ccc(-n2c(/C=C/c3ccc(C(F)(F)F)cc3)nc3ncccc3c2=O)cc1", "K-562 leukemia", "TRUE"),
    ("O=C(Nc1cccc(-n2cc(-c3ccncc3)c(-c3cc(O)cc(Cl)c3)n2)c1)c1cc(C(F)(F)F)cc(C(F)(F)F)c1", "K-562 leukemia", "FALSE"),
    ("CCOC1(OCC)OC(c2ccccc2)=C(C#N)C(/C=C\\c2ccccc2)C1(OCC)OCC (stereo unspecified)", "K-562 leukemia", "FALSE"),
    ("CC(=O)C1CCC2C3CC(F)C4=CC(=O)CCC4(C)C3C(O)CC12C (stereo unspecified)", "K-562 leukemia", "FALSE"),
    ("CCN1CCN(c2nc3ccccc3c3c(=O)c4ccccc4sc23)CC1", "K-562 leukemia", "FALSE"),
    ("COc1cccc(-c2cc(-c3cccc(NS(C)(=O)=O)c3)nc(N)c2C#N)c1O", "K-562 leukemia", "FALSE"),
    ("Cc1cc(Cl)nc(N(CCCNc2ccnc3cc(Cl)ccc23)Cc2cccs2)n1", "K-562 leukemia", "TRUE"),
    ("Cc1ccc(NC(=O)NC2CCCCC2)cc1", "K-562 leukemia", "FALSE"),
    ("O=S(=O)(NCCNc1nccc(-c2c(-c3ccc(F)cc3)nc3sccn23)n1)c1ccc2ccccc2c1", "K-562 leukemia", "FALSE"),
    ("c1ccc(CO[C@H]2CO[C@H]3[C@@H]2OC[C@H]3OCc2ccccc2)cc1", "K-562 leukemia", "FALSE"),
    ("COc1cc(OC)cc(-c2cncn2-c2ccc(-c3nc4cc(OC)cc(OC)c4s3)cc2)c1", "K-562 leukemia", "FALSE"),
    ("O=C(Nc1ccc(CN2CCc3nc4cc(O)c(O)cc4cc32)cc1)c1ccc(Cl)c(Cl)c1", "K-562 leukemia", "FALSE"),
    ("CCN1CCCC1CNC(=O)c1ncc(-c2ccc(C(F)(F)F)cc2)c(NC2CCCCCC2)n1 (stereo unspecified)", "K-562 leukemia", "TRUE"),
    ("O=C(Nc1cccc(Cl)c1)Nc1nccs1", "K-562 leukemia", "FALSE"),
    ("Nc1c(C(=O)Nc2cccc3ccccc23)sc2nc3c(cc12)C(=O)CCC3", "K-562 leukemia", "FALSE"),
    ("COc1ccc(/C=C2/CN(C(=O)c3ccccc3F)C/C(=C\\c3ccc(OC)cc3)C2=O)cc1", "K-562 leukemia", "TRUE"),
    ("CN(C)CCOc1nc2ccccc2c2c1-c1ccc(Cl)cc1C2=O", "K-562 leukemia", "TRUE"),
    ("COc1ccc(OC)c(/C=C/c2nnc(Nc3ccc(Cl)cc3)o2)c1", "K-562 leukemia", "FALSE"),
    ("O=C1C(=O)c2ccccc2C(O)=C1CCCc1ccc(C2CCCCCC2)cc1", "K-562 leukemia", "FALSE"),
    ("COc1ccc(-c2nc3sccn3c2-c2nc3c([nH]2)C(=O)c2ccccc2C3=O)cc1", "K-562 leukemia", "FALSE"),
]
